B1: Twister Ribozyme (parent)
chain: AACACUGCCAAUGCCGGUCCCAAGCCCGGAUAAAAGUGGAGGGGGCGG

variants of: B1; experiment: self-cleavage, relative activity (ratio to wild type); higher = more cleavage; co-transcriptional
// class assignment uses self-cleavage with these ranges: label 0: < 0.2; label 1: ≥ 0.2 and < 0.7; label 2: ≥ 0.7

# mutation-string, group
rows = [
    ("G16C A23C", "label 0"),
    ("G39U", "label 1"),
    ("A1G A11G", "label 1"),
    ("U6C G44A", "label 1"),
    ("A10G C19U", "label 2"),
    ("U18A G38U", "label 0"),
    ("C8U U12A", "label 2"),
    ("U6G C14U", "label 1"),
    ("A30G", "label 2"),
]
